Reference for the values: patent US5747517A

- System name: cathepsin D (Homo sapiens, UniProt P07339)
- Construct: Human brain cathepsin D was purified from frozen post-mortem cortex; from tissue; host or cells: human tissue: brain cortex (Assay 1), liver (Assay 2, bought from Athens Research and Technology) or placenta (Assay 3); the results are not tied to one of them
- Sequence (P07339 169-412 limits assumed): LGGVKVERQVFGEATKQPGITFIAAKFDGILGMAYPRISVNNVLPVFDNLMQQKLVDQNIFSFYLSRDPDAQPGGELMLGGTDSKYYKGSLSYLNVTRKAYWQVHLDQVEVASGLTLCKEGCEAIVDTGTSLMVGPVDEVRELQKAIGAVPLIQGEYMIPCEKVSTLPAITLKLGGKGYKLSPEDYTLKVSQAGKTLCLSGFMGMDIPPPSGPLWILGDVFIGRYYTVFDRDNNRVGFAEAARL
- Sequence (P07339 65-162 limits assumed): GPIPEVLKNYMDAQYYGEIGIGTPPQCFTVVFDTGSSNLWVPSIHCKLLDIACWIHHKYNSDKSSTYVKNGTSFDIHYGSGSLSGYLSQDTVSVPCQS
- Protocol text: Cathepsin D Inhibition Assay (non-cellular)
- Assay type: biochemical
- Applied conditions: 10.0 μg/ml; read-out: Percent Inhibition (cathepsin D)
Hi, to clarify the labels: Y covers inhibition at 10 µg/mL from 40% upward, N covers anything below 40%.

Solved cases (4 shown):
Molecule	Discrete label
O=C1NC(=S)SC1=Cc1ccc(Oc2ccccc2[N+](=O)[O-])cc1 [Example 5]	N
CC(C)(C)c1ccc(Oc2cccc(C=C3SC(=S)N(N)C3=O)c2)cc1 [Example 9]	N
CC(C)(C)c1ccc(Oc2cccc(C=C3SC(=S)N(CCC(=O)O)C3=O)c2)cc1 [Example 8]	N
CCCc1c(COc2ccc(C=C3SC(=S)N(C)C3=O)cc2)ccc(C(C)=O)c1O [Example 6]	Y

API: the following record is the query input.
Please indicate if the recorded inhibition at 10 µg/mL for CCCc1c(COc2ccc(C=C3SC(=S)NC3=O)cc2)ccc(C(C)=O)c1O [Example 1] meets or exceeds 40%.
Y
